Tested on: Swiss mice, Sarcoma 180 sc, mean tumor weight T/C
Experiment: NCI In Vivo Anticancer Drug Screen. Data for tumor model Sarcoma 180 (subcutaneous) in Swiss mice
Details: endpoint: mean tumor weight; dose: 2.3 mg/kg/injection; schedule: Q01DX007 (ip); vehicle: carboxymethylcellulose (CMC); higher = larger tumour
Experimental: The antitumor activity of compounds was measured in mice bearing transplantable tumors. Survival or tumor size were measured and the results are expressed as the measurement made in the treated group (T) divided by the measurement made in the vehicle treated control group (C). The tumor model used in this assay is Sarcoma 180 (subcutaneous) in Swiss mice
Property measured: T/C

Check out these entries, answers already filled in.
q: Record COC(=O)[C@H]1[C@H]2C[C@@H]3c4[nH]c5cc(OC)ccc5c4CCN3C[C@H]2C[C@@H](OC(=O)c2cc(OC)c(OC)c(OC)c2)[C@@H]1OC : what is its T/C with Swiss mice, Sarcoma 180 sc, mean tumor weight T/C?
a: 42 % of control

q: Observed T/C on Swiss mice, Sarcoma 180 sc, mean tumor weight T/C for CCc1nc(N)nc(N)c1-c1ccc(Cl)c(Cl)c1.O.O.[Zn] , please.
a: 65 % of control

q: API: value(readout= T/C, system= Swiss mice, Sarcoma 180 sc, mean tumor weight T/C, query= C=CC(CN1CC1)OC(C)=O (centres undefined) )
a: 58 % of control

Consider now this further compound.
q: Give Swiss mice, Sarcoma 180 sc, mean tumor weight T/C T/C for N=[N+]=CC(=O)OCC(N)C(=O)O (centres undefined)
a: 14 % of control

###

System: Swiss mice, Sarcoma 180 sc, mean tumor weight T/C
Experiment: NCI In Vivo Anticancer Drug Screen. Data for tumor model Sarcoma 180 (subcutaneous) in Swiss mice
Details: endpoint: mean tumor weight; dose: 7.5 mg/kg/injection; schedule: Q#A X014 (ip); vehicle: carboxymethylcellulose (CMC); higher = larger tumour
Description: The antitumor activity of compounds was measured in mice bearing transplantable tumors. Survival or tumor size were measured and the results are expressed as the measurement made in the treated group (T) divided by the measurement made in the vehicle treated control group (C). The tumor model used in this assay is Sarcoma 180 (subcutaneous) in Swiss mice
Numbered stars: 1 amine (or outer) side, 2 acyl side, 3 side chain; on linkers, the order of the positions; unused ones are H or OH. Bridge positions count the residues as written; N and C are the ends. Square brackets hold non-standard residues; d marks the D form. Peptide text beside a SMILES is read from it. I, II: the chains in the order shown. Actinocin(9to1) = Cc1c2oc3c(C)ccc(C(=O)[*:1])c3nc-2c(C(=O)[*:2])c(N)c1=O; aThr = C[C@H](O)[C@H](N)C(=O)O; NMeV = CN[C@H](C(=O)O)C(C)C; Sar = CNCC(=O)O
Property measured: T/C

q: Please provide the recorded T/C for Cc1c2oc3c(C)ccc(C(=O)N[C@@H]4C(=O)N[C@H](C(C)C)C(=O)N5CCC[C@H]5C(=O)N(C)CC(=O)N(C)[C@@H](C(C)C)C(=O)O[C@H]4C)c3nc-2c(C(=O)N[C@@H]2C(=O)N[C@H](C(C)C)C(=O)N3CCC[C@H]3C(=O)N(C)CC(=O)N(C)[C@@H](C(C)C)C(=O)O[C@H]2C)c(N)c1=O (I: [aThr][dV]P[Sar][NMeV] / II: [aThr][dV]P[Sar][NMeV]; ester I:1-I:C, II:1-II:C; linker I:N-II:N via Actinocin(9to1)) , tested on Swiss mice, Sarcoma 180 sc, mean tumor weight T/C.
a: 71 % of control
